Consider the following molecules and their measured dog LM_NADPH parent compound remaining at the last time point (in parentheses) readings.
# protocol.summary: Liver microsomal stability, phase I (NADPH), dog
# Type: in vitro ADME
# test.settings: 4.6 μM, 60 min
parameter.measured: dog LM_NADPH parent compound remaining at the last time point (in parentheses) (%)

entry_smiles=COc1cc(F)c2[nH]c3c(c2c1)CN(C(=O)c1cc(C(F)(F)F)[nH]n1)CC3 unit_info=% quantitative_result=90
entry_smiles=Cc1ccc(F)c2[nH]c3c(c12)CN(C(=O)c1cc(C(F)(F)F)[nH]n1)[C@H](C)C3 unit_info=% quantitative_result=92
entry_smiles=Cc1ccc(F)c2[nH]c3c(c12)CN(C(=O)c1cc(C(F)(F)F)[nH]n1)CC3 unit_info=% quantitative_result=92

* * *

# subject.of.test: F508del-CFTR (Homo sapiens, UniProt P13569, DEL508-508)
# Sequence (P13569 with tags, fused parts or gaps DEL508-508): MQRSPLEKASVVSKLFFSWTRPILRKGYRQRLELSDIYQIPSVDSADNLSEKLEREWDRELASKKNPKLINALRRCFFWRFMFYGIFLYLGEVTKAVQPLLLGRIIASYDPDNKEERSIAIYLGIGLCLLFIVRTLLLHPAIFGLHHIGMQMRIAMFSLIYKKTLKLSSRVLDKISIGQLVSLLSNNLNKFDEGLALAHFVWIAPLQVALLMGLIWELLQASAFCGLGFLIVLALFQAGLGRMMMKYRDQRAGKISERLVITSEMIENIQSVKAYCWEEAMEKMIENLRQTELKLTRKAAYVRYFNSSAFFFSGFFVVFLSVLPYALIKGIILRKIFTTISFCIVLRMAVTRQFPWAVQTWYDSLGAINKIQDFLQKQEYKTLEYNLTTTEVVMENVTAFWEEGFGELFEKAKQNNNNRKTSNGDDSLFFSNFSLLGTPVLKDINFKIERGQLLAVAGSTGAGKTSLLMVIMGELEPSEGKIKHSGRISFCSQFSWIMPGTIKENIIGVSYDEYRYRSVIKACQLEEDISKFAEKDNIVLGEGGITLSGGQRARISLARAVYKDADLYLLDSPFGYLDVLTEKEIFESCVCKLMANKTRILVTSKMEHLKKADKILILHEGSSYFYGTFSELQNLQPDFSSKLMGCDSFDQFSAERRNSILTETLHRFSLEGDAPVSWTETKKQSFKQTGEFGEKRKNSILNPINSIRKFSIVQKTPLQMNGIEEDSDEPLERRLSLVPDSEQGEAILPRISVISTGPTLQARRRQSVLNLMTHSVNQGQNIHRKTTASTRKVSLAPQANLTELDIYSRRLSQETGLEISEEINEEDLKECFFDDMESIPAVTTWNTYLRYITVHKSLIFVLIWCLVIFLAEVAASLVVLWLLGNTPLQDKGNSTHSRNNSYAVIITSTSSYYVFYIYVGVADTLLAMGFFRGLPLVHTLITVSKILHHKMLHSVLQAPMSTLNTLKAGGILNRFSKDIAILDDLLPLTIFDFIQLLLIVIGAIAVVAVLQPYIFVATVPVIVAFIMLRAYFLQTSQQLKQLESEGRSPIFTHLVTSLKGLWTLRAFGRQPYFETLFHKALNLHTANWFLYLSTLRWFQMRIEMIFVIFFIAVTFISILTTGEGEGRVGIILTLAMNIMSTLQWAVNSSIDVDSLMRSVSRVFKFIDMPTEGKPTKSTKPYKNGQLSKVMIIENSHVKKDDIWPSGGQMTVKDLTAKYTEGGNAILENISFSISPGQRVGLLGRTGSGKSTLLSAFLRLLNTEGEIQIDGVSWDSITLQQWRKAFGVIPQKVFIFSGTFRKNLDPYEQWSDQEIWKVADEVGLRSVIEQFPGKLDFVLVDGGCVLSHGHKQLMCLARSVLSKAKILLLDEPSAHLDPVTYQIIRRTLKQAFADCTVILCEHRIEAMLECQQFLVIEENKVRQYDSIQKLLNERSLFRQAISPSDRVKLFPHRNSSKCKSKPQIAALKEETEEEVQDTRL
# protocol.summary: HS-YFP-based assay for CFTR activity on F508del-CFTR FRT cells rescued at 32 °C for 24 h
# Assay type: cell-based
# Design: expressed in transfected cells; key: fold increase in F508del-CFTR rescue relative to hit 3 (normalized)
# test.settings: supplementary csv; same data as Tables 1–3
# Protocol: The chemical library was screened in duplicate on a Fischer rat thyroid (FRT) cell line, stably coexpressing F508del-CFTR and the halide-sensitive yellow fluorescent protein, HS-YFP.[23],[34],[35] […] After stimulation, the F508del-CFTR activity in the plasma membrane was calculated by measuring the rate of fluorescence quenching arising from iodide influx.[34] […]
Mark Criterion met for Emax under 0.9, Criterion not met if at or over.

entry_smiles=Cc1ccc(F)c2[nH]c3c(c12)CN(C(=O)c1cc(C(F)(F)F)[nH]n1)[C@@H](C)C3 classification="Criterion not met"
entry_smiles=Cc1ccc(F)c2[nH]c3c(c12)CCN(C(=O)c1cc(C(F)(F)F)[nH]n1)CC3 classification="Criterion not met"
entry_smiles=Cc1ccc(F)c2[nH]c3c(c12)CN(C(=O)c1cc(C(F)(F)F)[nH]n1)C(C)(C)C3 classification="Criterion met"
entry_smiles=COc1ccc2[nH]c3c(c2c1)CN(C(=O)c1cc(C(C)C)[nH]n1)CC3 classification="Criterion not met"
entry_smiles=Cc1ccc(F)c2[nH]c3c(c12)CN(C(=O)c1cc(C(F)(F)F)[nH]n1)CC3 classification="Criterion not met"
entry_smiles=COc1ccc2c(c1)c1c(n2C)CCN(C(=O)c2cc(C(F)(F)F)[nH]n2)C1 classification="Criterion met"
entry_smiles=Cc1ccc(F)c2[nH]c3c(c12)CN(C(=O)c1cc(C(F)(F)F)[nH]n1)[C@H](C)C3 classification="Criterion not met"
entry_smiles=COc1ccc2[nH]c3c(c2c1)CN(C(=O)c1cc(C)[nH]n1)CC3 classification="Criterion met"
entry_smiles=O=C(c1cc(C(F)(F)F)[nH]n1)N1CCc2[nH]c3ccc(F)cc3c2C1 classification="Criterion not met"
entry_smiles=COc1ccc2[nH]c3c(c2c1)CN(C(=O)c1cc(-c2ccccc2)[nH]n1)CC3 classification="Criterion met"
entry_smiles=Cc1ccc2[nH]c3c(c2c1)CN(C(=O)c1cc(C(F)(F)F)[nH]n1)CC3 classification="Criterion not met"
entry_smiles=O=C(c1cc(C(F)(F)F)[nH]n1)N1CCc2[nH]c3c(F)cc(F)cc3c2C1 classification="Criterion met"
entry_smiles=O=C(c1cc(C(F)(F)F)[nH]n1)N1CCc2[nH]c3c(F)ccc(F)c3c2C1 classification="Criterion not met"
entry_smiles=COc1cc(F)c2[nH]c3c(c2c1)CN(C(=O)c1cc(C(F)(F)F)[nH]n1)CC3 classification="Criterion not met"
entry_smiles=COc1ccc2[nH]c3c(c2c1)CN(C(=O)c1c[nH]c(C(F)(F)F)n1)CC3 classification="Criterion met"
entry_smiles=Cc1cccc2c3c([nH]c12)CCN(C(=O)c1cc(C(F)(F)F)[nH]n1)C3 classification="Criterion not met"
entry_smiles=N#Cc1ccc2[nH]c3c(c2c1)CN(C(=O)c1cc(C(F)(F)F)[nH]n1)CC3 classification="Criterion met"
entry_smiles=COc1ccc2[nH]c3c(c2c1)CN(C(=O)c1cc(C(F)(F)F)[nH]n1)CC3 classification="Criterion not met"
entry_smiles=CN(C)c1ccc2cc(C(=O)N3CCc4[nH]c5ccccc5c4C3)[nH]c2c1 classification="Criterion not met"
entry_smiles=O=C(c1cc(C(F)(F)F)[nH]n1)N1CCc2[nH]c3c(F)cc(C(F)(F)F)cc3c2C1 classification="Criterion not met"

Reference source for all entries: paper PMC8011931
